MEASURED_ON: MAGI3_2, Q5TCQ9
Sequence (Q5TCQ9 398-503): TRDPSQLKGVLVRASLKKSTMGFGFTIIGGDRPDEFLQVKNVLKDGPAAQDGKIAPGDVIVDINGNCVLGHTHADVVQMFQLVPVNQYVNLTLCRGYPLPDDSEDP
EXPERIMENTAL_DETAILS: holdup assay
Design: key: below the threshold = too weak to quantify, mostly under pKd 3.1 to 4
SETTINGS: plain residues with an end cap or a label only (N-terminal biotin on a linker: ado-ado)
Classify by measured pKd: T if it is equal to or exceeds 4, F if it is smaller.

BINDER: ARGPPRESEV [FAM110D, Q8TAY7]
GROUP: T

BINDER: MQHQRTHTRV [ZSCAN30, Q86W11]
GROUP: T

BINDER: PSHPRLQTHV [KIRREL2, Q6UWL6]
GROUP: T

BINDER: AQRARSPSDV [GPR12, P47775]
GROUP: F

BINDER: ILRKSTTTTV [PRR16, Q569H4]
GROUP: T

BINDER: KPGKGSETVV [FZD4, Q9ULV1]
GROUP: T

BINDER: PSVGSKKTVL [REELD1, A0A1B0GV85]
GROUP: F

BINDER: SPDRDRESIV [SCN5A, Q14524]
GROUP: T

BINDER: RFQQRMQTHV [KIRREL1, Q96J84]
GROUP: T

BINDER: NTLNRKTTPV [CACNG8, Q8WXS5]
GROUP: T

BINDER: PTPDLPQTRV [KLHDC7A, Q5VTJ3]
GROUP: F

Where do these numbers come from? They come from paper PMC9482650.
